Target: purified recombinant human PARP (Homo sapiens)
Assay: PARP enzyme assay (IC50), [3H]NAD incorporation
Conditions: approximate IC50 values; 25° C., 15 minutes
Method: The reaction is initiated by incubating the mixture at 25° C. After 15 minutes of incubation. the reaction is terminated by adding 500 microliters of ice cold 20% (w/v) trichloroacetic acid. The precipitate formed is transferred onto a glass fiber filter (Packard Unifilter-GF/B) and washed three times with ethanol. After the filter is dried, the radioactivity is determined by scintillation counting.
pIC50: −log10 of the molar value.
pIC50 of 7 or higher: label 1. Under 7: label 0.

Compound	Assigned Category
Cc1cccc2c(=O)[nH]c3cc(C(F)(F)F)c(NC(=O)CCl)cc3c12	label 1
COc1ccc(S(=O)(=O)Nc2cc3c(cc2C)[nH]c(=O)c2ccccc23)cc1	label 0
O=C(N[C@@H](Cc1ccc(F)cc1)C(=O)O)c1ccc2c(c1)[nH]c(=O)c1ccccc12	label 1
COC(=O)C1CCCN1S(=O)(=O)c1ccc2[nH]c(=O)c3ccccc3c2c1 (stereo not drawn)	label 0
COC(=O)c1ccc2c(c1)[nH]c(=O)c1cc(F)ccc12	label 1
C[N+](C)(C)CC(=O)Nc1ccc2[nH]c(=O)c3ccccc3c2c1	label 1
O=C(NC(Cc1ccc2ccccc2c1)C(=O)O)c1ccc2c(c1)[nH]c(=O)c1ccccc12 (stereo not drawn)	label 1
C[C@H](NC(=O)c1ccc2c(c1)[nH]c(=O)c1ccccc12)C(=O)O	label 1
Cc1cc2[nH]c(=O)c3ccccc3c2cc1NC(=O)Cc1ccc(F)cc1	label 0
O=C(N[C@H](C(=O)O)c1ccccc1)c1ccc2c(c1)[nH]c(=O)c1ccccc12	label 1

Now consider a different compound.
Task item: Check the entry CC(=O)Nc1cc2c(cc1C)[nH]c(=O)c1ccccc12 : does pIC50 equal or exceed 7?
Reply: label 0

---

log10(IC50) by entry:
Molecular target: purified recombinant human PARP (Homo sapiens)
Construct: purchased Trevigan (Gaithersburg, Md.)
Assay: PARP enzyme assay (IC50), [3H]NAD incorporation
Format: biochemical
Details: approximate IC50 values; 25° C., 15 minutes
Log10 applied to IC50; unit prior to transform: µM.

// solved cases for log10(IC50) follow
Molecule	Assay Target	Numeric Result
O=C(NCCc1ccccc1)c1ccc2c(c1)[nH]c(=O)c1cc(F)ccc12 [Compound 18]	purified recombinant human PARP (Homo sapiens)	-0.82
O=c1[nH]c2cc(S(=O)(=O)NCCN3CCOCC3)ccc2c2ccc(F)cc12 [Compound 44]	purified recombinant human PARP (Homo sapiens)	-1.72
Cc1ccc(S(=O)(=O)Nc2ccc3[nH]c(=O)c4ccccc4c3c2)cc1 [Compound 1]	purified recombinant human PARP (Homo sapiens)	-0.92
O=c1[nH]c2ccc(S(=O)(=O)NCCN(CCO)CCO)cc2c2ccccc12 [Compound 8]	purified recombinant human PARP (Homo sapiens)	-1.22
CCOC(=O)C1CCN(S(=O)(=O)c2ccc3[nH]c(=O)c4ccccc4c3c2)CC1 [Compound 65]	purified recombinant human PARP (Homo sapiens)	-0.70

Task item: What value of measured log10(IC50) is listed for CC(NC(=O)c1ccc2c(c1)[nH]c(=O)c1ccccc12)C(=O)O (centres unmarked) [Compound 24] ?
Reply: -1.25

Task item: What value of measured log10(IC50) is listed for COC(=O)[C@@H]1CCCN1C(=O)c1ccc2c(c1)[nH]c(=O)c1cc(F)ccc12 [Compound 19] ?
Reply: -0.80

Task item: What value of measured log10(IC50) is listed for Cc1cc2[nH]c(=O)c3ccccc3c2cc1NC(=O)c1cccc(F)c1 [Compound 52] ?
Reply: 0.08

---

Biological target: purified recombinant human PARP (Homo sapiens, UniProt P09874)
Sequence (P09874 whole entry): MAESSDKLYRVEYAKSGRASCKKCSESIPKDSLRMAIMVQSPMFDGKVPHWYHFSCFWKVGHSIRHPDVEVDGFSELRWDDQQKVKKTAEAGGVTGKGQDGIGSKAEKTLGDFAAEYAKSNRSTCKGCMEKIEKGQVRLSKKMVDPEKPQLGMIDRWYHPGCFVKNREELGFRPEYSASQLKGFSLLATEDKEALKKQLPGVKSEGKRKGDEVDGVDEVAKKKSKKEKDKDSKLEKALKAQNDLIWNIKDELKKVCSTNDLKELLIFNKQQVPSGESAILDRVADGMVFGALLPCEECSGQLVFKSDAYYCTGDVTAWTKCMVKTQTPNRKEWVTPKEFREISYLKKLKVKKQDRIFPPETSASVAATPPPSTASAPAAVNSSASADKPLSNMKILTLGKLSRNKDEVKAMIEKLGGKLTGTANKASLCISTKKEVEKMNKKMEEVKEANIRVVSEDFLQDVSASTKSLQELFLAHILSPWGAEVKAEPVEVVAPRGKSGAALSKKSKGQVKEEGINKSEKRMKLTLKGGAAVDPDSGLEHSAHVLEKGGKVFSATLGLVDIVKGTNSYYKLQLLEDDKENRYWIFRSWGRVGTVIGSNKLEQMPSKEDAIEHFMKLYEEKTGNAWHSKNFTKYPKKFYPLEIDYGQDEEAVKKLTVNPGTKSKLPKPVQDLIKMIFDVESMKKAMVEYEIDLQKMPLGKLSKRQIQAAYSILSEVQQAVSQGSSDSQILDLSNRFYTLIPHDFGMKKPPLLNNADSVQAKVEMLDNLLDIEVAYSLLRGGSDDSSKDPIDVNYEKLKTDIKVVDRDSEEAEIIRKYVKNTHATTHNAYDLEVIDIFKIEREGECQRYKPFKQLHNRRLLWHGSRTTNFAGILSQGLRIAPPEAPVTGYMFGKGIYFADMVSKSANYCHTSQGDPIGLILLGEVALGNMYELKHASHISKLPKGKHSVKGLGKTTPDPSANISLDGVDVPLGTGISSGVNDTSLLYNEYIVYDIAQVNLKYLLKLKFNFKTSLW
Experiment: PARP enzyme assay (IC50), [3H]NAD incorporation
Details: approximate IC50 values; 25° C., 15 minutes
Readout Name: pIC50
The scale used: pIC50 is minus the common logarithm of the concentration in molar units.

// solved cases for pIC50 follow
Molecule	pIC50
CC(C)[C@H](NC(=O)c1ccc2c(c1)[nH]c(=O)c1ccccc12)C(=O)O	7.60
O=C(c1ccc2c(c1)[nH]c(=O)c1ccccc12)N1CCOCC1	4.00
CCC(C)C(NC(=O)c1ccc2c(c1)[nH]c(=O)c1ccccc12)C(=O)O (centres unmarked)	6.15
O=c1[nH]c2ccc(S(=O)(=O)NCCN3CCCC3)cc2c2ccccc12	7.13

# next molecule below
Task item: What value of measured pIC50 is listed for O=C(NCCOCCO)c1ccc2c(c1)[nH]c(=O)c1ccccc12 ?
Reply: 7.10

---

Molecular target: purified recombinant human PARP (Homo sapiens)
Assay: PARP enzyme assay (IC50), [3H]NAD incorporation
Conditions: approximate IC50 values; 25° C., 15 minutes
Readout Name: IC50 (nM)
Kindly answer with a numeric value in nM, unit omitted.

Compound	Numeric Result
O=C(NCCN1CCOCC1)c1ccc2c(c1)[nH]c(=O)c1ccccc12 [Compound 9]	40

Task item: What value of measured IC50 is listed for Cc1cc2[nH]c(=O)c3ccccc3c2cc1NC(=O)C[N+](C)(C)C [Compound 54] ?
Reply: 195

Task item: What value of measured IC50 is listed for O=C(NCCN1CCOCC1)c1ccc2c(c1)[nH]c(=O)c1ccccc12 [Compound 40] ?
Reply: 35

Task item: What value of measured IC50 is listed for O=C(Nc1ccc2[nH]c(=O)c3ccccc3c2c1)c1ccc(F)cc1 [Compound 31] ?
Reply: 69

Task item: What value of measured IC50 is listed for O=c1[nH]c2ccc(S(=O)(=O)NC3CN4CCC3CC4)cc2c2ccccc12 (stereo not drawn) [Compound 64] ?
Reply: 43

Task item: What value of measured IC50 is listed for O=C(O)CCC(NC(=O)c1ccc2c(c1)[nH]c(=O)c1ccccc12)C(=O)O (stereo not drawn) [Compound 25] ?
Reply: 272

Task item: What value of measured IC50 is listed for O=C(NCCCc1ccccc1)c1ccc2c(c1)[nH]c(=O)c1cc(F)ccc12 [Compound 57] ?
Reply: 415

Task item: What value of measured IC50 is listed for CCCCC(NC(=O)c1ccc2c(c1)[nH]c(=O)c1ccccc12)C(=O)O (stereo not drawn) [Compound 29] ?
Reply: 54

Task item: What value of measured IC50 is listed for O=C(NCc1ccccc1)c1ccc2c(c1)[nH]c(=O)c1cc(F)ccc12 [Compound 16] ?
Reply: 399

---

Molecular target: purified recombinant human PARP (Homo sapiens)
Assay: PARP enzyme assay (IC50), [3H]NAD incorporation
Conditions: approximate IC50 values; 25° C., 15 minutes
# if measured IC50 < 80 nM: rule met  # else: rule not met

Molecule	Assay Target	Assigned Category
O=C(N[C@@H](Cc1ccccc1)C(=O)O)c1ccc2c(c1)[nH]c(=O)c1ccccc12	purified recombinant human PARP (Homo sapiens)	rule met

Task item: Item O=C(N[C@@H](CS)C(=O)O)c1ccc2c(c1)[nH]c(=O)c1ccccc12 : IC50 beneath 80 nM, strictly?
Reply: rule not met

Task item: Item O=C(O)CCC(=O)Nc1ccc2[nH]c(=O)c3ccccc3c2c1 : IC50 beneath 80 nM, strictly?
Reply: rule not met

---

pIC50 by entry:
Molecular target: purified recombinant human PARP (Homo sapiens)
Construct: purchased Trevigan (Gaithersburg, Md.)
Assay: PARP enzyme assay (IC50), [3H]NAD incorporation
Type: biochemical
Settings: approximate IC50 values; 25° C., 15 minutes
The scale used: pIC50 is minus the common logarithm of the concentration in molar units.

Task item: What value of measured pIC50 is listed for O=C(CCl)Nc1ccc2[nH]c(=O)c3ccccc3c2c1 ?
Reply: 7.10

Task item: What value of measured pIC50 is listed for O=C(NC(CO)C(=O)O)c1ccc2c(c1)[nH]c(=O)c1ccccc12 (stereo not shown) ?
Reply: 7.08

Task item: What value of measured pIC50 is listed for O=c1[nH]c2ccc(S(=O)(=O)NCCN3CCOCC3)cc2c2ccccc12 ?
Reply: 6.85

Task item: What value of measured pIC50 is listed for O=c1[nH]c2ccc(S(=O)(=O)O)cc2c2ccccc12 ?
Reply: 6.94
